Data provenance is patent US20080182859A1.

# System: sonic hedgehog pathway
# TEST_NAME: Human hedgehog reporter assay Daoy-GliLuc (DGL)
# Type: cell-based
# PROTOCOL_CONDITIONS: Daoy human medulloblastoma cells, Gli-luciferase reporter; read-out: Daoy Avg. EC50
pEC50: −log10 of the molar value. Where a name gives a salt, the structure may show the parent alone.
MEASURED_METRIC: pEC50

Would you please look over these solved cases?
CN[C@H]1CC[C@@H](N(Cc2cc(-c3ccc(N(C)C=O)cc3)ccc2OC)C(=O)c2sc3ccccc3c2Cl)CC1 [Compound 315, trifluoroacetate] = 6.60 to 7.30
CN[C@H]1CC[C@@H](N(Cc2cc(-c3ccc(N(C)C=O)cc3)ccc2OC)C(=O)c2sc3cccc(F)c3c2Cl)CC1 [Compound 347, trifluoroacetate] = > 7.30
CN[C@H]1CC[C@H](N(Cc2cc(-c3ccc(N(C)C=O)cc3)ccc2F)C(=O)c2sc3ccccc3c2Cl)CC1 [Compound 426, trifluoroacetate] = 6.60 to 7.30

List the reported pEC50 of each compound below.
1. CNc1cc(-c2ccc(OC)c(CN(C(=O)c3sc4c(F)ccc(F)c4c3Cl)[C@H]3CC[C@@H](NC)CC3)c2)ccn1 [Compound 357, bis(trifluoroacetate)]
2. CN[C@H]1CC[C@@H](N(Cc2cc(-c3cncnc3)ccc2OC)C(=O)c2sc3c(F)ccc(F)c3c2Cl)CC1 [343 (R15)]
3. CN[C@H]1CC[C@@H](N(Cc2cc(-c3cncnc3)ccc2OC)C(=O)c2sc3ccccc3c2Cl)CC1 [324 (R20)]
4. CN[C@H]1CC[C@@H](N(Cc2cc(-c3cccnc3)ccc2OC)C(=O)c2sc3cccc(F)c3c2Cl)CC1 [360 (R16), dihydrochloride]

Reply:
> 7.30
> 7.30
> 7.30
> 7.30

I have 6 compounds here; please give me pEC50 for each one.
1. CN[C@H]1CC[C@@H](N(Cc2cc(-c3ccc(OC(F)(F)F)cc3)ccc2OC)C(=O)c2sc3ccccc3c2Cl)CC1 [Compound 307, hydrochloride]
2. CN[C@H]1CC[C@@H](N(Cc2cc(-c3ccnc(C(N)=O)c3)ccc2OC)C(=O)c2sc3c(F)ccc(F)c3c2Cl)CC1 [354 (R17)]
3. CN[C@H]1CC[C@@H](N(Cc2cc(-c3ccc(N)nc3)ccc2OC)C(=O)c2sc3c(F)ccc(F)c3c2Cl)CC1 [352 (R18)]
4. CNC(=O)c1cc(-c2ccc(OC)c(CN(C(=O)c3sc4c(F)ccc(F)c4c3Cl)[C@H]3CC[C@H](NC)CC3)c2)ccn1 [356 (R21), dihydrochloride]
5. CCOc1ccc(-c2ccc(OC)cc2)cc1CN(C(=O)c1sc2ccccc2c1Cl)[C@H]1CC[C@@H](NC)CC1 [Compound 312, hydrochloride]
6. CN[C@H]1CC[C@H](N(Cc2cc(-c3ccccc3SC)ccc2OC)C(=O)c2sc3c(F)ccc(F)c3c2Cl)CC1 [Compound 408, hydrochloride]

Reply:
> 7.30
> 7.30
> 7.30
> 7.30
6.60 to 7.30
6.00 to 6.60

For each of the compounds below, note its pEC50.
1. CCOc1ccc(-c2ccc(C(=O)C(F)(F)F)cc2)cc1CN(C(=O)c1sc2ccccc2c1Cl)[C@H]1CC[C@@H](NC)CC1 [Compound 310, hydrochloride]
2. CCOc1ccc(-c2ccc(C(F)(F)F)cc2)cc1CN(C(=O)c1sc2ccccc2c1Cl)[C@H]1CC[C@@H](NC)CC1 [Compound 309, hydrochloride]
3. CN[C@H]1CC[C@@H](N(Cc2cc(-c3ccc(C(=O)N(C)C)cc3)ccc2OC)C(=O)c2sc3c(F)ccc(F)c3c2Cl)CC1 [Compound 333, hydrochloride]
4. CN[C@H]1CC[C@@H](N(Cc2cc(-c3ccnc(C)c3)ccc2OC)C(=O)c2sc3cccc(F)c3c2Cl)CC1 [Compound 348, bis(trifluoroacetate)]
5. CN[C@H]1CC[C@@H](N(Cc2cc(-c3cnc(N)nc3)ccc2OC)C(=O)c2sc3ccccc3c2Cl)CC1 [Compound 323, dihydrochloride]

Reply:
> 7.30
> 7.30
> 7.30
> 7.30
> 7.30

State the recorded pEC50 for every item in the following list.
1. CN[C@H]1CC[C@@H](N(Cc2cc(-c3ccc(C(=O)C(F)(F)F)cc3)ccc2OC)C(=O)c2sc3c(F)ccc(F)c3c2Cl)CC1 [Compound 349, trifluoroacetate]
2. CN[C@H]1CC[C@@H](N(Cc2cc(-c3ccc(C(F)(F)F)cc3)ccc2OC)C(=O)c2sc3ccccc3c2Cl)CC1 [Compound 306, trifluoroacetate]
3. CN[C@H]1CC[C@@H](N(Cc2cc(-c3ccc(OC)cc3)ccc2OC)C(=O)c2sc3ccccc3c2Cl)CC1 [Compound 305, hydrochloride]
4. CN[C@H]1CC[C@@H](N(Cc2cc(-c3ccc(C(N)=O)cc3)ccc2OC)C(=O)c2sc3cccc(F)c3c2Cl)CC1 [Compound 346, hydrochloride]
5. CN[C@H]1CC[C@H](N(Cc2cc(-c3ccccc3)ccc2F)C(=O)c2sc3ccccc3c2Cl)CC1 [Compound 425, trifluoroacetate]
6. CN[C@H]1CC[C@@H](N(Cc2cc(-c3ccnc(N(C)C)c3)ccc2OC)C(=O)c2sc3c(F)ccc(F)c3c2Cl)CC1 [Compound 358, dihydrochloride]

Reply:
1: > 7.30; 2: > 7.30; 3: > 7.30; 4: > 7.30; 5: > 7.30; 6: > 7.30

----------
# System: sonic hedgehog pathway
# TEST_NAME: Human hedgehog reporter assay HEPM-GliLuc (HGL)
# Assay type: cell-based
# PROTOCOL_CONDITIONS: HepM human embryonic palatal mesenchymal cells, Gli-luciferase reporter
Where a name gives a salt, the structure may show the parent alone.
MEASURED_METRIC: EC50

For each of the items listed, what is its EC50?
1. CN[C@H]1CC[C@@H](N(Cc2cc(-c3ccc(C)nc3)ccc2OC)C(=O)c2sc3c(F)ccc(F)c3c2Cl)CC1 [Compound 334, bis(trifluoroacetate)]
2. CN[C@H]1CC[C@@H](N(Cc2cc(-c3ccnc(C)c3)ccc2OC)C(=O)c2sc3c(F)ccc(F)c3c2Cl)CC1 [Compound 345, dihydrochloride]
3. CN[C@H]1CC[C@@H](N(Cc2cc(-c3ccc(S(C)(=O)=O)cc3)ccc2OC)C(=O)c2sc3c(F)ccc(F)c3c2Cl)CC1 [Compound 335, hydrochloride]
4. CN[C@H]1CC[C@@H](N(Cc2cc(-c3ccc(CCl)cc3)ccc2OC)C(=O)c2sc3ccccc3c2Cl)CC1 [Compound 340, hydrochloride]
5. CN[C@H]1CC[C@@H](N(Cc2cc(-c3ccc(N)nc3)ccc2OC)C(=O)c2sc3cccc(F)c3c2Cl)CC1 [362 (R13), dihydrochloride]

Reply:
1. < 0.05 µM
2. < 0.05 µM
3. < 0.05 µM
4. < 0.05 µM
5. < 0.05 µM

----------
# Tested on: sonic hedgehog pathway
# TEST_NAME: Human hedgehog reporter assay Daoy-GliLuc (DGL)
# Type: cell-based
# PROTOCOL_CONDITIONS: Daoy human medulloblastoma cells, Gli-luciferase reporter; read-out: Daoy Avg. EC50
pEC50: −log10 of the molar value. Structures can show the parent of a compound that is named as a salt.
Would you mind telling me the reported pEC50 of each entry?

For orientation, consider the following solved cases.
CNc1ncc(-c2ccc(OC)c(CN(C(=O)c3sc4ccccc4c3Cl)[C@H]3CC[C@@H](NC)CC3)c2)cn1 [Compound 322, dihydrochloride] = 6.60 to 7.30
CN[C@H]1CC[C@H](N(Cc2cc(-c3ccc(C(C)=O)cc3)ccc2F)C(=O)c2sc3ccccc3c2Cl)CC1 [Compound 419, trifluoroacetate] = 6.60 to 7.30
CCOc1ccc(-c2ccccc2)cc1CN(C(=O)c1sc2ccccc2c1Cl)[C@H]1CC[C@@H](NC)CC1 [Compound 313, hydrochloride] = > 7.30
CN[C@H]1CC[C@@H](N(Cc2cc(-c3cccc(C(C)=O)c3)ccc2OC)C(=O)c2sc3cccc(F)c3c2Cl)CC1 [Compound 363, hydrochloride] = > 7.30
COc1ccc(-c2cccnc2)cc1CN(C(=O)c1sc2cccc(F)c2c1Cl)[C@H]1CC[C@@H](N)CC1 = > 7.30

Task item: May I ask what pEC50 has been recorded for CN[C@H]1CC[C@@H](N(Cc2cc(-c3ccc(F)cc3)ccc2OC)C(=O)c2sc3ccccc3c2Cl)CC1 [Compound 314, hydrochloride] ?
Reply: > 7.30

----------
# System: sonic hedgehog pathway
# TEST_NAME: Human hedgehog reporter assay HEPM-GliLuc (HGL)
# Assay type: cell-based
# PROTOCOL_CONDITIONS: HepM human embryonic palatal mesenchymal cells, Gli-luciferase reporter
Structures can show the parent of a compound that is named as a salt.
Field: EC50. Provide a value for each of the molecules that follow.

CN[C@H]1CC[C@@H](N(Cc2cc(-c3cncnc3)ccc2OC)C(=O)c2sc3ccccc3c2Cl)CC1 [324 (R20)] = 50 to 250 nM
CN[C@H]1CC[C@@H](N(Cc2cc(-c3ccc(N)nc3)ccc2OC)C(=O)c2sc3c(F)ccc(F)c3c2Cl)CC1 [352 (R18)] = < 50 nM
CN[C@H]1CC[C@@H](N(Cc2cc(-c3cnccn3)ccc2OC)C(=O)c2sc3c(F)ccc(F)c3c2Cl)CC1 [344 (R14)] = < 50 nM
CCOc1ccc(-c2ccc(C(C)=O)cc2)cc1CN(C(=O)c1sc2ccccc2c1Cl)[C@H]1CC[C@@H](NC)CC1 [Compound 311, hydrochloride] = 50 to 250 nM
CN[C@H]1CC[C@@H](N(Cc2cc(-c3ccnc(C)c3)ccc2OC)C(=O)c2sc3ccccc3c2Cl)CC1 [331 (R11)] = < 50 nM
CCOc1ccc(-c2ccc(N)nc2C)cc1CN(C(=O)c1sc2ccccc2c1Cl)[C@H]1CC[C@H](NC)CC1 [Compound 403, dihydrochloride] = 250 to 1000 nM
CN[C@H]1CC[C@@H](N(Cc2cc(-c3ccc(C(=O)N(C)C)cc3)ccc2OC)C(=O)c2sc3c(F)ccc(F)c3c2Cl)CC1 [Compound 333, hydrochloride] = < 50 nM
CN[C@H]1CC[C@H](N(Cc2cc(-c3ccnc(C(=O)OC)c3)ccc2OC)C(=O)c2sc3c(F)ccc(F)c3c2Cl)CC1 = < 50 nM

I'm hoping you can list EC50 for every molecule here, please.
1. CCOc1ccc(-c2cncnc2)cc1CN(C(=O)c1sc2ccccc2c1Cl)[C@H]1CC[C@@H](NC)CC1 [Compound 326, dihydrochloride]
2. CN[C@H]1CC[C@@H](N(Cc2cc(-c3ccnc(N(C)C)c3)ccc2OC)C(=O)c2sc3c(F)ccc(F)c3c2Cl)CC1 [Compound 358, dihydrochloride]
3. CCOc1ccc(-c2cnc(N)nc2)cc1CN(C(=O)c1sc2ccccc2c1Cl)[C@H]1CC[C@@H](NC)CC1 [Compound 325, dihydrochloride]
4. CN[C@H]1CC[C@@H](N(Cc2cc(-c3ccc(C(=O)N(C)C)cc3)ccc2OC)C(=O)c2sc3ccccc3c2Cl)CC1 [317 (R19)]
5. CCOc1ccc(-c2ccc(NC)nc2)cc1CN(C(=O)c1sc2ccccc2c1Cl)[C@H]1CC[C@H](NC)CC1 [Compound 399, dihydrochloride]

Reply:
50 to 250 nM
< 50 nM
50 to 250 nM
< 50 nM
1000 to 2500 nM
